tested on: U2OS; experiment: Multiplex assay against U2OS; format: toxicity, cell-based; settings: human, 12 h, 1 µM, compound concentration 1 uM, replicate 1
Kind request: treat 90% as inclusive, so Population Normal (%) at 90% or higher is label 1, anything lower is label 0.

compound	group
Cn1cc(-c2[nH]c3cc(NC(=O)[C@H](N)C4CCCCC4)cc4c3c2C=NNC4=O)cn1	label 1
Cc1nc(-c2cn3c(n2)-c2ccc(-c4cnn(C(C)(C)C(N)=O)c4)cc2OCC3)n(C(C)C)n1 [TASELISIB]	label 1
c1cn2cc(-c3ccc4cn[nH]c4c3)nc(Nc3ccc(N4CCOCC4)cc3)c2n1 [ENTOSPLETINIB]	label 1

In plain terms: is recorded Population Normal (%) at least 90% for Cc1c(-c2ccc(O)cc2)n(Cc2ccc(OCCN3CCCCCC3)cc2)c2ccc(O)cc12 [BAZEDOXIFENE] ?
label 0

In plain terms: is recorded Population Normal (%) at least 90% for Nc1c(C(=O)NCc2ccc(C(=O)NCCCC3CCCCC3)cc2)cnn1-c1ccccc1 [SR-318] ?
label 1

In plain terms: is recorded Population Normal (%) at least 90% for CN1CCN(CCOc2cc(OC3CCOCC3)c3c(Nc4c(Cl)ccc5c4OCO5)ncnc3c2)CC1 [SARACATINIB] ?
label 1

In plain terms: is recorded Population Normal (%) at least 90% for C=CC(=O)Nc1cc2c(Nc3ccc(F)c(Cl)c3)ncnc2cc1OCCCN1CCOCC1.Cl.Cl [CANERTINIB DIHYDROCHLORIDE] ?
label 1

In plain terms: is recorded Population Normal (%) at least 90% for COc1cccc([C@@H](C)NCCCc2ccccc2Cl)c1.Cl [TECALCET HYDROCHLORIDE] ?
label 0

---

test system: HEK-293T; assay: Multiplex assay against HEK293T; type: toxicity, cell-based; conditions: human, 48 h, 10 µM, compound concentration 10 uM, replicate 1
Reported Total Cell Count by item:
Write no unit; give the number alone.

compound	recorded.endpoint	reported.value
Cc1csc2c(N[C@@H](C)CN3CCN(S(=O)(=O)c4ccc(Cl)c(Cl)c4)CC3)ncnc12	Total Cell Count	229
CNc1nc(NCc2ccc(NS(C)(=O)=O)cc2Cl)cc(-c2ccccn2)n1	Total Cell Count	189
Cc1c(-c2ccc(O)cc2)n(Cc2ccc(OCCN3CCCCCC3)cc2)c2ccc(O)cc12	Total Cell Count	178
CCOCCn1cc(C(=O)Nc2ccc(-n3nc(-c4cccnc4)cc3C(F)(F)F)cn2)ccc1=O	Total Cell Count	341
Cc1cc(C)cc(-c2cnc3cc(Cl)c(-c4cccc(O)c4)cc3c2OCCCN)c1	Total Cell Count	238
Cc1nc(-c2ccc(-c3ccc(C(=O)N4CCc5cc6c(cc54)C4(CCN(C)CC4)CO6)cc3)c(C)c2)no1	Total Cell Count	363
COc1cccc([C@@H](C)NCCCc2ccccc2Cl)c1.Cl [TECALCET HYDROCHLORIDE]	Total Cell Count	355
CN(C)C(=O)N[C@H]1CC[C@H](CCN2CCN(c3cccc(Cl)c3Cl)CC2)CC1.Cl [CARIPRAZINE HYDROCHLORIDE]	Total Cell Count	342

Total Cell Count of `COc1cc(-n2cnc3cc(-c4ccc(Cl)cc4)sc3c2=O)ccc1OCCN1CCCC1` on HEK-293T?
270

Total Cell Count of `CN(C)CC#Cc1ccc(OCCCc2sc(N3CCc4cccc(C(=O)Nc5nc6ccccc6s5)c4C3)nc2C(=O)O)c(F)c1` on HEK-293T?
390

Total Cell Count of `c1cn2cc(-c3ccc4cn[nH]c4c3)nc(Nc3ccc(N4CCOCC4)cc3)c2n1` on HEK-293T?
913

---

Reported Population Healthy Nuclei (%) by item:
system: HEK-293T; experiment: Multiplex assay against HEK293T; assay type: toxicity, cell-based; settings: human, 24 h, 10 µM, compound concentration 10 uM, replicate 2

compound	Population Healthy Nuclei (%)
Cc1nc(-c2cn3c(n2)-c2ccc(-c4cnn(C(C)(C)C(N)=O)c4)cc2OCC3)n(C(C)C)n1 [TASELISIB]	73%
CNc1nc(NCc2ccc(NS(C)(=O)=O)cc2Cl)cc(-c2ccccn2)n1	25%
C[C@@H](NCCCc1cccc(C(F)(F)F)c1)c1cccc2ccccc12.Cl [CINACALCET HYDROCHLORIDE]	18%

Shifting focus to the compound that follows.
So what does the record say about Population Healthy Nuclei (%) for `CN(C)C(=O)/C(C#N)=C/c1ccc(-c2nc3cnc4[nH]ccc4c3n2C2CCCCC2)o1` ?
56%

---

system: Fibroblast; test: Multiplex assay against human fibroblast; type: toxicity, cell-based; conditions: 12 h, 1 µM, compound concentration 1 uM, replicate 2
recorded.endpoint: Population Pyknosed Nuclei (%)
Give just the number in %; leave the unit off.

Known Population Pyknosed Nuclei (%) results, listed for orientation:
molecule	recorded.endpoint	reported.value
C=CC(=O)Nc1ccc2ncnc(Nc3ccc(OCc4cccc(F)c4)c(Cl)c3)c2c1.Cc1ccc(S(=O)(=O)O)cc1	Population Pyknosed Nuclei (%)	8
Cc1c(-c2ccc(O)cc2)n(Cc2ccc(OCCN3CCCCCC3)cc2)c2ccc(O)cc12	Population Pyknosed Nuclei (%)	4
Cl.N#Cc1ccc2[nH]cc(CCCCN3CCN(c4ccc5oc(C(N)=O)cc5c4)CC3)c2c1 [VILAZODONE HYDROCHLORIDE]	Population Pyknosed Nuclei (%)	15

So what does the record say about Population Pyknosed Nuclei (%) for CN(C)C(=O)N[C@H]1CC[C@H](CCN2CCN(c3cccc(Cl)c3Cl)CC2)CC1.Cl [CARIPRAZINE HYDROCHLORIDE] ?
8

---

Reported Total Cell Count by item:
tested on: U2OS; test: Multiplex assay against U2OS; format: toxicity, cell-based; settings: human, 12 h, 1 µM, compound concentration 1 uM, replicate 1

Known Total Cell Count results, listed for orientation:
molecule	target.entity	reported.value
CC(C)(O)CNc1ncc(-c2ccnc(Nc3ccnc(Cl)c3)n2)c(CC2CC2)n1	U2OS	182
Cc1nc(Nc2n[nH]c3c2CN(C(=O)N[C@H](CN(C)C)c2ccccc2)C3(C)C)c2sccc2n1	U2OS	234
Cc1nc(-c2cn3c(n2)-c2ccc(-c4cnn(C(C)(C)C(N)=O)c4)cc2OCC3)n(C(C)C)n1	U2OS	181

So what does the record say about Total Cell Count for `CN(C)C(=O)/C(C#N)=C/c1ccc(-c2nc3cnc4[nH]ccc4c3n2C2CCCCC2)o1` ?
122

So what does the record say about Total Cell Count for CN1CCCC(n2nc(Cc3ccc(Cl)cc3)c3ccccc3c2=O)CC1.Cl (configuration not stated) [AZELASTINE HYDROCHLORIDE] ?
95

So what does the record say about Total Cell Count for CN(C)C(=O)N[C@H]1CC[C@H](CCN2CCN(c3cccc(Cl)c3Cl)CC2)CC1.Cl [CARIPRAZINE HYDROCHLORIDE] ?
84

So what does the record say about Total Cell Count for CN1CCC[C@@H]1CCO[C@](C)(c1ccccc1)c1ccc(Cl)cc1.O=C(O)/C=C/C(=O)O [CLEMASTINE FUMARATE] ?
108

So what does the record say about Total Cell Count for `OC1(c2ccc(Cl)cc2)CCN(Cc2c[nH]c3ccccc23)CC1` ?
115

So what does the record say about Total Cell Count for Cl.N#Cc1ccc2[nH]cc(CCCCN3CCN(c4ccc5oc(C(N)=O)cc5c4)CC3)c2c1 [VILAZODONE HYDROCHLORIDE] ?
129

So what does the record say about Total Cell Count for O=C1NCN(c2ccccc2)C12CCN(CCCOc1ccc(F)cc1)CC2 [SPIRAMIDE] ?
210

So what does the record say about Total Cell Count for `NC(=O)Nc1cc(-c2cccc(F)c2)sc1C(=O)N[C@H]1CCCNC1` ?
157

So what does the record say about Total Cell Count for `C[C@@]1(C(=O)Nc2ccc(F)nc2)CCCN1c1nc(Nc2cc(C3CC3)n[nH]2)c2cccn2n1` ?
181

So what does the record say about Total Cell Count for C[C@@H](NCCCc1cccc(C(F)(F)F)c1)c1cccc2ccccc12.Cl [CINACALCET HYDROCHLORIDE] ?
184

So what does the record say about Total Cell Count for `Cn1cc(-c2[nH]c3cc(NC(=O)[C@H](N)C4CCCCC4)cc4c3c2C=NNC4=O)cn1` ?
123

So what does the record say about Total Cell Count for `CC[C@H](C)C(=O)O[C@H]1C[C@@H](C)C=C2C=C[C@H](C)[C@H](CC[C@@H]3C[C@@H](O)CC(=O)O3)[C@H]21` ?
140

So what does the record say about Total Cell Count for `Cc1csc2c(N[C@@H](C)CN3CCN(S(=O)(=O)c4ccc(Cl)c(Cl)c4)CC3)ncnc12` ?
158

So what does the record say about Total Cell Count for `CN1CCN(c2ccc(OC(F)(F)F)c(Nc3ncc4c(n3)-c3c(c(C(N)=O)nn3CCO)CC4)c2)CC1` ?
569

---

test system: U2OS; assay: Multiplex assay against U2OS; format: toxicity, cell-based; settings: human, 12 h, 10 µM, compound concentration 10 uM, replicate 1
recorded.endpoint: Population Mitochondria Different-Phenotype (%)

Known Population Mitochondria Different-Phenotype (%) results, listed for orientation:
compound	target.entity	reported.value
CN(C)CC#Cc1ccc(OCCCc2sc(N3CCc4cccc(C(=O)Nc5nc6ccccc6s5)c4C3)nc2C(=O)O)c(F)c1 [A-1155463]	U2OS	15%
Cc1nc(-c2ccc(-c3ccc(C(=O)N4CCc5cc6c(cc54)C4(CCN(C)CC4)CO6)cc3)c(C)c2)no1 [SB-224289]	U2OS	98%
COc1ncc(-c2ccc3nccc(-c4ccnnc4)c3c2)cc1NS(=O)(=O)c1ccc(F)cc1F [OMIPALISIB]	U2OS	15%
CC[C@H](C)C(=O)O[C@H]1C[C@@H](C)C=C2C=C[C@H](C)[C@H](CC[C@@H]3C[C@@H](O)CC(=O)O3)[C@H]21 [LOVASTATIN]	U2OS	14%
CN1CCN(CCOc2cc(OC3CCOCC3)c3c(Nc4c(Cl)ccc5c4OCO5)ncnc3c2)CC1 [SARACATINIB]	U2OS	89%

So what does the record say about Population Mitochondria Different-Phenotype (%) for Cc1nc(-c2cn3c(n2)-c2ccc(-c4cnn(C(C)(C)C(N)=O)c4)cc2OCC3)n(C(C)C)n1 [TASELISIB] ?
19%

So what does the record say about Population Mitochondria Different-Phenotype (%) for `CNc1nc(NCc2ccc(NS(C)(=O)=O)cc2Cl)cc(-c2ccccn2)n1` ?
29%
